Assay: Binding affinity towards Alpha1D dog adrenergic receptors, using [125I]-HEAT as radioligand.
pKi: −log10 of the molar value.
Observation Type: pKi

# Molecular String, Observed Result
rows = [
    ("C[C@@H]1OC(=O)N(C(=O)NCCCN2CCC(c3ccc(F)cc3)CC2)[C@H]1c1ccc(F)c(F)c1", 6.88),
]
